System: endogenous SOCE
assay: Endogenous SOCE
Type: cell-based
conditionLabel: read-out: IC50 of endogenous SOCE
measuredAttribute: IC50 (µM)
Lab book: enter the figure in µM, no units written.

Tested system endogenous SOCE; IC50 recorded for CCC(=O)N(C)c1ccc(Cl)c(Cl)c1 was 100

---

measuredTarget: UniProt Q9QUQ5
Sequence (Q9QUQ5 1-890 isoform Q9QUQ5-2): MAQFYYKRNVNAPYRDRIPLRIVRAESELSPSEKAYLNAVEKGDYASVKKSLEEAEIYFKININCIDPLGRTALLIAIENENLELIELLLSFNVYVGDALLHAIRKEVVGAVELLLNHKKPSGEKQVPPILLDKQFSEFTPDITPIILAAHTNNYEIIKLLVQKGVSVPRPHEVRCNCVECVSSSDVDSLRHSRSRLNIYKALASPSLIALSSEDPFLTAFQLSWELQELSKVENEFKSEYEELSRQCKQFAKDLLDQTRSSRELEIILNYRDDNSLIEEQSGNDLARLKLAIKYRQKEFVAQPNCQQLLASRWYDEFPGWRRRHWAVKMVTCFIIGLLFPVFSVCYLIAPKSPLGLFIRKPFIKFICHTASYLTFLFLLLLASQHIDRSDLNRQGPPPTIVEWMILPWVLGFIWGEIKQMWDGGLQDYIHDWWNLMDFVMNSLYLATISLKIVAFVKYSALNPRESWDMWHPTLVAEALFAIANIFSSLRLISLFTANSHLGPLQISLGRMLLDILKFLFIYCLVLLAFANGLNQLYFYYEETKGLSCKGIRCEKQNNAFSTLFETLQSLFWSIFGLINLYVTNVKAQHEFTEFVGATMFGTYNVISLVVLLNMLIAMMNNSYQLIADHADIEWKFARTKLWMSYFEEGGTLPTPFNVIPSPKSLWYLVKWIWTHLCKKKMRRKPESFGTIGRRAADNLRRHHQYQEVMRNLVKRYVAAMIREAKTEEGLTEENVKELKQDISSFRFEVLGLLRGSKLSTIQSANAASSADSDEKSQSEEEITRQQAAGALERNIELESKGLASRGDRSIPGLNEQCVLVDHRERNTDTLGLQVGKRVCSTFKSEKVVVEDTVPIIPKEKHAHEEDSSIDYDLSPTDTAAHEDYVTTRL
assay: Carbachol-induced Sr2+ entry in TRPC4-overexpressing HEK293 cells
conditionLabel: read-out: IC50 of Cch-induced Sr2+ entry; Cch 100 nM, Sr2+ 3 mM
measuredAttribute: IC50

Kindly note the recorded IC50 for CCC(=O)N(C)c1ccc(Cl)c(Cl)c1 [ELP-004] , which is 172 nM
